- Test system: HOP-62 NSCLC
- method summary: NCI-60 one-dose screen, 48 h
- run conditions: 10 µM unless noted
About 83,000 compounds went through this panel and 20% of them were active in at least one assay; those are over-represented in the sample as a whole. Calls of active or inactive are those of the source. Rule for the calls: active = growth percent below 10; inactive = the rest.
Possible outcomes: active, inactive

{"line notation": "COc1ccc(-c2cc(-c3nnc(SCC(=O)Nc4ccc(/C(C)=N\\O)cc4)n3-c3ccccc3)c3cc(OC)ccc3n2)cc1", "qualitative label": "inactive"}
{"line notation": "c1ccc(-c2cn3ccnc3c(-c3ccc4c(c3)ncn4C3CCCCC3)n2)cc1", "qualitative label": "inactive"}
{"line notation": "Cc1cnc(-c2ccc(-c3ccc(NC(=O)Nc4c(F)cc(F)cc4F)cc3F)c3c2C(=O)NC3)[nH]1", "qualitative label": "inactive"}
{"line notation": "COc1ccccc1-c1ccc2nc(NC(=O)Nc3cc(C(F)(F)F)cc(C(F)(F)F)c3)sc2c1", "qualitative label": "active"}

# credit: PubChem BioAssay (NCI)
